Test system: RPMI-8226
experimental-details: NCI tumour cell line growth inhibition, 48 h
Calls of active or inactive are those of the source. No stated cut-off is given here; in the data, active = GI50 up to about 1.1 µM and inactive = higher.

| compound | GI50 |
| --- | --- |
| C[C@@H]1CC(=O)C2CCCC1C2=O (stereo partly specified) | > 100 µM (inactive) |
| NC(=O)c1ccc(NCC2=CC(=O)C=CC2=O)cc1 | 18.7 µM (inactive) |
| COc1cc2c(cc1OC)C(=O)/C(=C/c1cc(Cl)cc(Cl)c1)C2 | 4.94 µM (inactive) |
| CCCCCCCCCCCCCCCCCCNc1ccn(C2OC(CO)C(O)C2O)c(=O)n1 (stereo unspecified) | 34 µM (inactive) |
| Nc1ccc(Cc2ccc(N)c(C(=O)O)c2)cc1C(=O)O | > 100 µM (inactive) |
| COc1ccc(C2S/C(=C\c3cccc([N+](=O)[O-])c3)C(=O)N2NC(=O)Cc2ccccc2)cc1 (stereo unspecified) | > 100 µM (inactive) |
